- PROTOCOL NOTES: Maximum tolerable dose study, 14 days IP
- Type: in vivo, mice
- CONDITION DESCRIPTION: female, C57BL/6, mouse, ovaries, intraperitoneal; 100 mg/kg daily IP, after 14 days, LCMS; read-out: concentration in the target organ (ovaries)
- Method: FIG. 7, panel A illustrates in vivo PK studies, C57BL/6 mice. Drug concentration in plasma was quantified at different time points using LCMS after a single IP injection of SU093. FIG. 7, panel B illustrates the drug concentration in harvested ovaries and liver of C57BL/6 mice after 14 days of administration with SU093 (100 mg/kg) by daily IP injection. […]

- COMPOUND: "COc1ccc2c(c1)N(CCO)C1=C(C(=O)OC1)C2c1ccccc1 (stereo not shown) [SU093]"
  QUANTITY UNIT: "ng/mL"
  concentration at 14 days: 3730

----------
- PROTOCOL NOTES: In vivo pharmacokinetics, plasma concentration by LCMS
- CONDITION DESCRIPTION: C57BL/6, mouse, C57BL6 female mice, single 10 mg/kg IP
MEASURE NAME: half-life (min)

- COMPOUND: "COc1ccc2c(c1)N(CCO)C1=C(C(=O)OC1)C2c1ccccc1 (stereo not shown)"
  RECORDED MEASUREMENT: 60

----------
- System: A549
- PROTOCOL NOTES: MTT cytotoxicity assay, A549
- Assay type: cell-based
- CONDITION DESCRIPTION: Homo sapiens, Lung

- COMPOUND: "COc1ccc2c(c1)N(CCO)C1=C(C(=O)OC1)C2c1ccccc1 (stereo not shown)"
  QUANTITY UNIT: "nM"
  IC50: 2.48

----------
- Test system: MCF7
- PROTOCOL NOTES: MTT cytotoxicity assay, MCF7
- Format: cell-based
- CONDITION DESCRIPTION: Homo sapiens, Breast
pIC50: −log10 of the molar value.

- COMPOUND: "COc1ccc2c(c1)N(CCO)C1=C(C(=O)OC1)C2c1ccccc1 (stereo not shown)"
  pIC50: 8.21

----------
- PROTOCOL NOTES: In vivo pharmacokinetics, plasma concentration by LCMS
- CONDITION DESCRIPTION: C57BL/6, mouse, C57BL6 female mice, single 10 mg/kg IP

- COMPOUND: "COc1ccc2c(c1)N(CCO)C1=C(C(=O)OC1)C2c1ccccc1 (stereo not shown)"
  Tmax: "5 min"

----------
- System: DU145
- PROTOCOL NOTES: MTT cytotoxicity assay, DU145
- Type: cell-based
- CONDITION DESCRIPTION: Homo sapiens, DU-145, Prostate

- MOLECULE: "COc1ccc2c(c1)N(CCO)C1=C(C(=O)OC1)C2c1ccccc1 (stereo not shown) [SU093]"
  EXPERIMENTAL SYSTEM: "DU145"
  IC50 [nM]: 1.12

----------
- Tested on: SSC-90
- PROTOCOL NOTES: MTT cytotoxicity assay, SSC-90
- Format: cell-based
- CONDITION DESCRIPTION: Head and Neck, SSC-90, MTT assay
MEASURE NAME: IC50 (nM)

- COMPOUND: "COc1ccc2c(c1)N(CCO)C1=C(C(=O)OC1)C2c1ccccc1 (stereo not shown)"
  EXPERIMENTAL SYSTEM: "SSC-90"
  QUANTITY UNIT: "nM"
  RECORDED MEASUREMENT: 3.23
